# TARGET OR TEST SYSTEM: N-terminal HiBiT tagged BCL6 (Homo sapiens, UniProt P41182)
# Construct: expressed in transfected cells; host or cells: HT1080 (ATCC CCL-121), stably transduced with lentivirus pLV-UBC-N-HiBiT-BCL6-PGK-puro
# ASSAY TEXT: HiBiT based degradation assay
# Type: cell-based
# CONDITION CONTEXT: HT1080 cells expressing N-terminal HiBiT tagged BCL6; 5 hours of incubation; four-parameter logistic model; read-out: EC50 (5 hr)
# Method: Human BCL6 protein coding open reading frame fused with N-terminal HiBiT coding sequence was synthesized from Integrated DNA Technologies (IDT). […] HT1080 cells expressing N-terminal HiBiT tagged BCL6 were dispensed into a 384-well plate pre-spotted with compounds at varying concentrations. […] After incubation, luminescence was read on a PHERAstar FSX Plate Reader (BMG). […]
MEASURE NAME: DC50

CNC(=O)COc1cc2cc(Nc3nc(N4CC[C@H](CNc5ccc6c(C7CCC(=O)NC7=O)nn(C)c6c5)C4)ncc3Cl)cnc2n(C)c1=O (stereo partly drawn) [Compound 123a]    < 10 nM
CNC(=O)COc1cc2cc(Nc3nc(N4CCC(CN5CCN(c6ccc7c(C8CCC(=O)NC8=O)nn(C)c7c6)C[C@@H]5CO)CC4)ncc3Cl)cnc2n(C(C)C)c1=O (stereo partly drawn) [Compound 232b]    < 10 nM

Lab note: compound CNC(=O)COc1cc2cc(Nc3nc(N4C5COCC4CN(CC4CCN(c6cccc7c(C8CCC(=O)NC8=O)nn(C)c67)CC4)C5)ncc3Cl)cnc2n(C(C)C)c1=O (stereo not drawn) tested on N-terminal HiBiT tagged BCL6 (Homo sapiens, UniProt P41182); recorded DC50 was < 10 nM
